Data credit: ChEMBL document CHEMBL1124476

# Organism: Rattus norvegicus
# MEASUREMENT DESCRIPTION: […]
# Assay type: ADME, organism-based, Urine
# Design: dose 10 mg/kg, route oral
# CONDITION DETAILS: in vivo, po, 10 mg/kg
PARAMETER: Mean urine volume (mL)
Express your answer in mL, writing the number without its unit.

Here are 3 molecules together with their reported answers.
INSERT INTO assay_data (molecule, parameter, units_label, test_result) VALUES
  ('CN(C)CC(c1ccccc1Cl)c1nnc2n1-c1ccc(Cl)cc1C(c1ccccc1)=NC2 (stereo not given)', 'Mean urine volume', 'mL', 5.37),
  ('CN(C)CC(c1ccccc1)c1nnc2n1-c1ccc(I)cc1C(c1ccccc1)=NC2 (stereo not given)', 'Mean urine volume', 'mL', 10.8),
  ('COc1cccc(C(CN(C)C)c2nnc3n2-c2ccc(Cl)cc2C(c2ccccc2)=NC3)c1 (stereo not given)', 'Mean urine volume', 'mL', 5.99);

Query: Return reported Mean urine volume; argument: CC1N=C(c2ccccc2)c2cc(Cl)ccc2-n2c1nnc2C(CN(C)C)c1ccccc1 (stereo not given)
Reply: 7.53

Query: Now the same for COc1ccccc1C(CN(C)C)c1nnc2n1-c1ccc(Cl)cc1C(c1ccccc1)=NC2 (stereo not given)
Reply: 4.92
